The measurements presented in this section are drawn from patent US6001988.

Target: T1, L-selectin (LS-Rg) (Homo sapiens, UniProt P14151 P14151:39-332)
T1 chain: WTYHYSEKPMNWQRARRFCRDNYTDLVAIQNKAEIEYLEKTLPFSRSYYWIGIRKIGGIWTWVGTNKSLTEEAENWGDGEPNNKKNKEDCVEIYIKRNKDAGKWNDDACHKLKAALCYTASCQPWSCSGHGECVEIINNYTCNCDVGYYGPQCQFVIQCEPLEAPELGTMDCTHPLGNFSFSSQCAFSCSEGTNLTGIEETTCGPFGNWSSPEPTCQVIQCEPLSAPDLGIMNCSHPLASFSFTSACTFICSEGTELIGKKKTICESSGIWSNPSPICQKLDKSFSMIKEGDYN
Assay: filter; room temp, Ca/Mg; 160 pM at 37 C
Details: tags: human IgG2 Fc fusion (provided by A. Varki); label: 32P; hairpin
measured-parameter: Kd (nM)
Respond numerically; units are nM and should not be typed.

response.value for 227 (ssDNA) DNA: CTACCTACGATCTGACTAGCCGGACATGAGCGTTACAAGGTGCTAAACGTAACGTACTTGCTTACTCTCATGTAGTTCC (field: Kd) = 0.043
